Ref: ChEMBL document CHEMBL4033721

Listed next: entries and their corresponding log10(MIC).
- System: Mycobacteroides chelonae
- Assay explanation: Antimycobacterial activity against Mycobacterium chelonae ATCC 35752 after 8 days by resazurin microtiter based colorimetric assay
- Format: functional
- Conditions: ATCC 35752, 192 h
Short version: log10 scale, MIC, µg/mL.

CC1CCC(NC(=O)c2cc3ccccc3[nH]2)CC1 (mixture of isomers): 1.20

Now look at this one.
## Input Sample "Cc1cc(C)c2cc(C(=O)N[C@@H]3C[C@@H]4C[C@H]([C@H]3C)C4(C)C)[nH]c2c1" — what was its log10(MIC)?
## Output -0.90

====

- Assay explanation: Selectivity index, ratio of TD50 for human THP1 cells to MIC for Mycobacterium abscessus isolate DCI 21
- Format: toxicity
- Conditions: THP-1 cells, read-out: Selectivity Index
Property: selectivity ratio

## Input For "Cc1cc(C)c2cc(C(=O)NC3CCCCCCC3)[nH]c2c1" , what is its reported selectivity ratio?
## Output > 1910

## Input Proceed to "O=C(NC12CC3CC(CC(C3)C1)C2)c1cc2ccccc2[nH]1"
## Output > 58

## Input How about this compound: "C[C@@H]1[C@H]2C[C@@H](C[C@H]1NC(=O)c1cc3ccccc3[nH]1)C2(C)C"
## Output 22.6

## Input Another compound: "Cc1cc(C)c2cc(C(=O)N[C@@H]3C[C@@H]4C[C@H]([C@H]3C)C4(C)C)[nH]c2c1"
## Output > 130

====

- System: Staphylococcus aureus
- Assay explanation: Antibacterial activity against Staphylococcus aureus ATCC 25923 after 8 days by resazurin microtiter based colorimetric assay
- Type: functional
- Conditions: ATCC 25923, 192 h
Property: MIC

Observe how each entry below is paired with its result.
Cc1cc(C)c2cc(C(=O)NC3CCCCCC3)[nH]c2c1: > 160 µg/mL
C[C@@H]1[C@H]2C[C@@H](C[C@H]1NC(=O)c1cc3ccccc3[nH]1)C2(C)C: 40 µg/mL
Cc1cc(C)c2cc(C(=O)NC3CCC(C)CC3)[nH]c2c1 (mixture of isomers): > 160 µg/mL
Cc1cc(C)c2cc(C(=O)N[C@@H]3C[C@@H]4C[C@H]([C@H]3C)C4(C)C)[nH]c2c1: > 160 µg/mL
Cc1cc(C)c2cc(C(=O)NC3CCCCCCC3)[nH]c2c1: > 160 µg/mL

Kindly review the next compound as well.
## Input What measured MIC goes with "O=C(NC12CC3CC(CC(C3)C1)C2)c1cc2ccccc2[nH]1" ?
## Output > 160 µg/mL

====

- Tested on: Mycobacteroides abscessus
- Assay explanation: Antimycobacterial activity against Mycobacterium abscessus ATCC 19977 after 8 days by resazurin microtiter based colorimetric assay
- Type: functional
- Conditions: ATCC 19977, 192 h
Property: MIC

Some solved cases for reference:
CC1CCC(NC(=O)c2cc3ccccc3[nH]2)CC1 (mixture of isomers): > 32 mg/L
CCCCCCCCNC(=O)c1cc2c(C)cc(C)cc2[nH]1: > 32 mg/L
Cc1cc(C)c2cc(C(=O)NC(C)C34CC5CC(CC(C5)C3)C4)[nH]c2c1 (stereo not given): 16 mg/L
Cc1cc(C)c2cc(C(=O)NC3CCC(C)CC3)[nH]c2c1 (mixture of isomers): ≤ 0.06 mg/L

## Input What MIC value was documented for this compound, "CCC12CC3CC(C1)CC(NC(=O)c1cc4ccccc4[nH]1)(C3)C2" ?
## Output > 32 mg/L

====

- Assay explanation: Selectivity index, ratio of TD50 for human THP1 cells to MIC for Mycobacterium chelonae ATCC 35752
- Type: toxicity
- Conditions: THP-1 cells, read-out: Selectivity Index
Each entry below carries its reported selectivity ratio.

O=C(NC12CC3CC(CC(C3)C1)C2)c1cc2ccccc2[nH]1: > 58

## Input selectivity ratio for "Cc1cc(C)c2cc(C(=O)N[C@@H]3C[C@@H]4C[C@H]([C@H]3C)C4(C)C)[nH]c2c1" ?
## Output > 130

## Input What do we get for "C[C@@H]1[C@H]2C[C@@H](C[C@H]1NC(=O)c1cc3ccccc3[nH]1)C2(C)C" ?
## Output > 188

## Input // repeat for "Cc1cc(C)c2cc(C(=O)NC3CCCCCCC3)[nH]c2c1" and report
## Output > 236

====

- Assay explanation: Selectivity index, ratio of TD50 for human THP1 cells to MIC for Mycobacterium bolletii ATCC 14472
- Type: toxicity
- Conditions: THP-1 cells, read-out: Selectivity Index
Below, each entry is listed alongside its reported selectivity ratio.

Record excerpt, results attached:
Cc1cc(C)c2cc(C(=O)NC3CCCCCCC3)[nH]c2c1: > 3820
Cc1cc(C)c2cc(C(=O)N[C@@H]3C[C@@H]4C[C@H]([C@H]3C)C4(C)C)[nH]c2c1: > 130
C[C@@H]1[C@H]2C[C@@H](C[C@H]1NC(=O)c1cc3ccccc3[nH]1)C2(C)C: 92

// switching to the query molecule
## Input selectivity ratio for "O=C(NC12CC3CC(CC(C3)C1)C2)c1cc2ccccc2[nH]1" ?
## Output > 58

====

- Assay explanation: Cytotoxicity against human THP1 cells assessed as reduction in cell viability after 3 days by CellTiter-Glo based luminescence assay
- Conditions: THP-1 cells, read-out: TD50
Parameter: CC50 at 72 h. Scope: all listed entries.

Guide cases for CC50 at 72 h, answers given:
C[C@@H]1[C@H]2C[C@@H](C[C@H]1NC(=O)c1cc3ccccc3[nH]1)C2(C)C: 11.3 mg/L
O=C(NC12CC3CC(CC(C3)C1)C2)c1cc2ccccc2[nH]1: > 14.7 mg/L

## Input Which CC50 at 72 h is reported for this compound? "Cc1cc(C)c2cc(C(=O)N[C@@H]3C[C@@H]4C[C@H]([C@H]3C)C4(C)C)[nH]c2c1"
## Output > 16.2 mg/L

## Input Same question for "Cc1cc(C)c2cc(C(=O)NC3CCCCCCC3)[nH]c2c1" please.
## Output > 14.9 mg/L

====

- Assay explanation: Antimycobacterial activity against Mycobacterium massiliense isolate CIP108297 after 8 days by resazurin microtiter based colorimetric assay
- Type: functional, Mycobacterium abscessus subsp. massiliense
- Conditions: Mycobacteroides abscessus, isolate CIP108297, 192 h
Property: MIC

CCCCCCCCNC(=O)c1cc2ccccc2[nH]1: > 32 µg/mL
O=C(NC1CCCCCC1)c1cc2ccccc2[nH]1: > 32 µg/mL
Cc1cc(C)c2cc(C(=O)N[C@@H]3C[C@@H]4C[C@H]([C@H]3C)C4(C)C)[nH]c2c1: 0.125 µg/mL

## Input Quick check: MIC of O=C(NC1C2CC3CC(C2)CC1C3)c1cc2ccccc2[nH]1 (centres undefined) ?
## Output > 32 µg/mL

## Input Same for "Cc1cc(C)c2cc(C(=O)NC3CCCCCCC3)[nH]c2c1"
## Output 0.031 µg/mL

## Input Now consider "C[C@H]1CC[C@H](NC(=O)c2cc3ccccc3[nH]2)CC1" and answer again.
## Output > 32 µg/mL

## Input Next up: "O=C(NC1CCCCC1)c1cc2ccccc2[nH]1"
## Output > 32 µg/mL

## Input Let us now turn to "CCCCCCCCNC(=O)c1cc2c(C)cc(C)cc2[nH]1"
## Output > 32 µg/mL

## Input What do you get for "O=C(NC1CCCCCCC1)c1cc2ccccc2[nH]1" ?
## Output > 32 µg/mL

====

Each record here notes measured MIC.
- Assay explanation: Antimycobacterial activity against Mycobacterium massiliense isolate CRM0019 after 8 days by resazurin microtiter based colorimetric assay
- Type: functional, Mycobacterium abscessus subsp. massiliense
- Conditions: Mycobacteroides abscessus, isolate CRM0019, 192 h

Reference set (6 entries):
Cc1cc(C)c2cc(C(=O)NCC34CC5CC(CC(C5)C3)C4)[nH]c2c1: > 32 µg/mL
Cc1cc(C)c2cc(C(=O)NC3CCCCCC3)[nH]c2c1: ≤ 0.06 µg/mL
Cc1cc(C)c2cc(C(=O)NCc3cccc(Cl)c3)[nH]c2c1: > 32 µg/mL
Cc1cc(C)c2cc(C(=O)NC34CC5CC(CC(C5)C3)C4)[nH]c2c1: > 32 µg/mL
Cc1cc(C)c2cc(C(=O)NC3CCCCC3)[nH]c2c1: 0.25 µg/mL
Cc1cc(C)c2cc(C(=O)N[C@@H]3C[C@@H]4C[C@H]([C@H]3C)C4(C)C)[nH]c2c1: 0.125 µg/mL

## Input For the compound shown here, "Cc1cc(C)c2cc(C(=O)NC3CCCCCCC3)[nH]c2c1" , give the reported MIC.
## Output 0.0078 µg/mL

====

- Assay explanation: Antimycobacterial activity against Mycobacterium massiliense isolate CRM0019 after 8 days by resazurin microtiter based colorimetric assay
- Format: functional, Mycobacterium abscessus subsp. massiliense
- Conditions: Mycobacteroides abscessus, isolate CRM0019, 192 h
Property: MIC

Previously resolved entries follow.
O=C(NC1CCCC1)c1cc2ccccc2[nH]1: > 32 µg/mL
Cc1cc(C)c2cc(C(=O)N[C@H]3CC[C@H](C)CC3)[nH]c2c1: ≤ 0.06 µg/mL
Cc1cc(C)c2cc(C(=O)NC(C)C34CC5CC(CC(C5)C3)C4)[nH]c2c1 (stereo not drawn): 8 µg/mL

## Input State the recorded MIC for this entry: CC(NC(=O)c1cc2ccccc2[nH]1)C12CC3CC(CC(C3)C1)C2 (stereo not drawn)
## Output 8 µg/mL

## Input Also, "CCC12CC3CC(C1)CC(NC(=O)c1cc4ccccc4[nH]1)(C3)C2" please.
## Output > 32 µg/mL

## Input For "O=C(NCc1cccc(Cl)c1)c1cc2ccccc2[nH]1" then?
## Output > 32 µg/mL

## Input And for Cc1cc(C)c2cc(C(=O)NC3C4CC5CC(C4)CC3C5)[nH]c2c1 (stereo not drawn) ?
## Output > 32 µg/mL
